Recorded values, source paper PMC8199339.

molecular target: σ2 receptor (Rattus norvegicus, UniProt Q5U3Y7); construct: The thawed rat liver membrane preparation; tissue Harlan-Winkelmann, Borchen, Germany (animal organs); host or cells: rat liver membrane homogenate; assay: σ2 receptor binding assay, radioligand [3H]di-o-tolylguanidine, rat liver membrane preparation; details: test compound concentration of 1 µM; 1 µM
Sequence (Q5U3Y7 whole entry): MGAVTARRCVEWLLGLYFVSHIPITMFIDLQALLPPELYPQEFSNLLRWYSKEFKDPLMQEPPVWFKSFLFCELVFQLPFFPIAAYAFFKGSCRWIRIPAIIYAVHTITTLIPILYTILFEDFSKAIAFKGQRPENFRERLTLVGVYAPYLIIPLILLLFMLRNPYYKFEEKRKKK
Below, each entry is listed alongside its reported inhibition of the radioligand binding, σ2.
experimentalEndpoint: inhibition of the radioligand binding, σ2

compound: COc1ccc(C)cc1NC(=O)N(Cc1ccccc1)C1CC23CCCCC2(CC(O)C3)C1 (stereo not drawn) [syn,syn-22]
obsValue: 0%
//
compound: COc1ccc(C)cc1NC(=O)N(Cc1ccccc1)C1CC23CCCCC2(CC(O)C3)C1 (stereo not drawn) [anti,anti-22]
obsValue: 0%
//
compound: COc1ccc(C)cc1NC(=O)N(Cc1ccccc1)C1CC23CCCCC2(CC(=O)C3)C1 (stereo not drawn) [anti-21]
obsValue: 12%
//
compound: COc1ccc(C)cc1NC(=O)N(Cc1ccccc1)C1CC23CCCCC2(CC(O)C3)C1 (stereo not drawn) [syn,anti-22]
obsValue: 8%
//
compound: COc1ccc(C)cc1NC(=O)N(Cc1ccccc1)C1CC23CCCCC2(CC(O)C3)C1 (stereo not drawn) [anti,syn-22]
obsValue: 17%
//
compound: c1ccc(CNC2CC34CCCCC3(C2)CC2(C4)OCCO2)cc1 (stereo not drawn) [anti-14]
obsValue: 0%
